# Measurement Protocol: Antagonist activity at P2Y1 receptor in platelet-enriched human plasma assessed as 10 uM ADP-induced platelet aggregation preincubated for 1 min followed by ADP induction measured at 5 mins by aggregometric analysis
pIC50: −log10 of the molar value.
Recorded Endpoint: pIC50

[A] CC1(C)CN(c2ccccc2NC(=O)Nc2ccc(OC(F)(F)F)cc2)c2c(O)cc(F)c(-c3ccc(C(F)(F)F)cn3)c21
[B] CC1(C)CN(c2ccccc2NC(=O)Nc2ccc(OC(F)(F)F)cc2)c2c(O)ccc(Cl)c21
[in] Which is greater in pIC50, the first item A or the second item B ? The response must carry the label of the picked entry.
[out] A
(A: 6.96, B: 6.06)

[I] CC1(C)CN(c2ccccc2NC(=O)Nc2ccc(OC(F)(F)F)cc2)c2c(O)cc(F)c(-c3cc(F)nc(F)c3)c21
[II] CC1(C)CN(c2ccccc2NC(=O)Nc2ccc(OC(F)(F)F)cc2)c2c(O)ccc(-c3ccc(F)c(F)c3)c21
[III] CC1(C)CN(c2ccccc2NC(=O)Nc2ccc(OC(F)(F)F)cc2)c2c(O)ccc(-c3ccccc3F)c21
[in] Rank the items in ascending order with respect to pIC50. Labels, requested order.
[out] II, I, III
(II: 6.40, I: 6.80, III: 7.10)

[a] CC1(C)CN(c2ccccc2NC(=O)Nc2ccc(OC(F)(F)F)cc2)c2c(O)ccc(-c3cc(F)cc(F)c3)c21
[b] CC1(C)CN(c2ccccc2NC(=O)Nc2ccc(OC(F)(F)F)cc2)c2c(O)c(F)cc(-c3ccc(Cl)cc3)c21
[in] Which is greater in pIC50, the first item a or the second item b ? The response must carry the label of the picked entry.
[out] a
(a: 6.74, b: 6.52)

[P] CC1(C)CN(c2ccccc2NC(=O)Nc2ccc(OC(F)(F)F)cc2)c2c(O)cc(F)c(-c3ccc(F)cc3)c21
[Q] Cc1nc(NC(=O)Nc2ccccc2N2CC(C)(C)c3c(-c4ccc(F)cc4)ccc(O)c32)cs1
[R] CC(C)CN1CCCC1c1ccc(NC(=O)Nc2ccccc2N2CC(C)(C)c3c(-c4ccc(F)cc4)ccc(O)c32)cc1 (stereo unspecified)
[in] Rank the items in ascending order with respect to pIC50. Labels, requested order.
[out] Q, P, R

* * *

# Measurement Protocol: Antagonist activity at P2Y1 receptor in platelet-enriched human plasma assessed as 10 uM ADP-induced platelet aggregation preincubated for 1 min followed by ADP induction measured at 5 mins by aggregometric analysis
pIC50: −log10 of the molar value.
Recorded Endpoint: pIC50

Compound | Assay Result
CC1(C)CN(c2ccccc2NC(=O)Nc2nc3ccc(Cl)nc3s2)c2c(O)ccc(Cl)c21 | 5.85

[I] CCOC(=O)C1(C)CN(c2ccccc2NC(=O)Nc2ccc(OC(F)(F)F)cc2)c2c(O)ccc(Cl)c21 (stereo not given)
[II] CC1(C)CN(c2ccccc2NC(=O)Nc2ccc(OC(F)(F)F)cc2)c2c(O)cc(F)c(-c3ncc(F)cn3)c21
[in] Which is greater in pIC50, the first item I or the second item II ? The response must carry the label of the picked entry.
[out] II
(II: 6.02, I: 5.51)

[P] CC1(C)CN(c2ccccc2NC(=O)Nc2ccc(OC(F)(F)F)cc2)c2c(O)ccc(-c3cccc(F)c3)c21
[Q] CC1(C)CN(c2ccccc2NC(=O)Nc2ccc(OC(F)(F)F)cc2)c2c(O)cc(F)c(-c3ccc(Cl)s3)c21
[in] Which is greater in pIC50, the first item P or the second item Q ? The response must carry the label of the picked entry.
[out] Q
(Q: 6.89, P: 6.62)
